Overview of reported IC50 across a group of molecules:
- method: Inhibition of platelet aggregation in heparin treated human platelet rich plasma (PRP)
test-readout: IC50

[H]/N=C(/N)c1ccc(C2=NO[C@@H](CC(=O)NC[C@H](NC(=O)OCCCC)C(=O)O)C2)cc1 :: 0.066 µM
CCOP(=O)(NC(CNC(=O)CC1CC(c2ccc(C(=N)N)cc2)=NO1)C(=O)O)OCC (stereo not drawn) :: 0.24 µM
CC(C)OP(=O)(NC(CNC(=O)CC1CC(c2ccc(C(=N)N)cc2)=NO1)C(=O)O)OC(C)C (stereo not drawn) :: 0.21 µM
C=CCOP(=O)(NC(CNC(=O)CC1CC(c2ccc(C(=N)N)cc2)=NO1)C(=O)O)OCC=C (stereo not drawn) :: 0.224 µM
N=C(N)c1ccc(C2=NOC(CC(=O)NCCC(=O)O)C2)cc1 (stereo not drawn) :: 0.56 µM
N=C(N)c1ccc(C2=NOC(CC(=O)NCC(NP(=O)(O)O)C(=O)O)C2)cc1 (stereo not drawn) :: 0.376 µM
COP(=O)(NC(CNC(=O)CC1CC(c2ccc(C(=N)N)cc2)=NO1)C(=O)O)OC (stereo not drawn) :: 0.197 µM
CCCCOP(=O)(NC(CNC(=O)CC1CC(c2ccc(C(=N)N)cc2)=NO1)C(=O)O)OCCCC (stereo not drawn) :: 0.221 µM
